Each recorded value in this set is attributed to the COVID Moonshot data (paper PMC7615835).

- measured.target: SARS-CoV-2 Main Protease (SARS-CoV-2) (UniProt P0DTD1)
Each entry below carries its recorded IC50.

Known results for compounds:
O=C(NCCc1cccc(F)c1)C(c1cccnc1)N(C(=O)c1cocn1)C1CCCOC1 (centres undefined) = > 99500 nM
O=C(NCCc1cccc(F)c1)C(c1cccnc1)N(C(=O)c1cocn1)C1CCCCCC1 (centres undefined) = > 99500 nM
Cc1cnn(C)c1C(=O)N1Cc2ccc(Cl)cc2C2(CCN(c3cncc4ccccc34)C2=O)C1 (centres undefined) = 683 nM
O=C(Cc1cc(Cl)cc(N[C@H](c2ccccc2)[C@@H](O)c2ccccc2)c1)Nc1cncc2ccccc12 (stereo in doubt) = 2240 nM
CC(C)S(=O)(=O)c1ccc(N(C(=O)c2cnc[nH]2)C(C(=O)NCCc2cccc(F)c2)c2cccnc2)cc1 (centres undefined) = > 99000 nM
CC(=O)c1ccc(N(C(=O)c2ccco2)C(C(=O)NCCc2cccc(F)c2)c2cccnc2)cc1 (centres undefined) = 56300 nM
O=C(Cc1cc(Cl)cc(Nc2c(Cl)c(F)nc(F)c2Cl)c1)Nc1cncc2ccccc12 = 2160 nM
O=C(Nc1cncc2ccccc12)C1CN(S(=O)(=O)CC2CC2(F)F)Cc2ccc(Cl)cc21 (centres undefined) = 159 nM

Shift focus to the following entry.
// query Hello, I am looking for reported IC50 with SARS-CoV-2 Main Protease (SARS-CoV-2) (UniProt P0DTD1) for O=C(c1cc(F)cc(F)c1)N1CCOc2cc(O)ccc2C1 . Could you help?
// result > 99500 nM

* * *

- run.parameters: mdck
measured.property: recovery (%)
Express it in %; write the number only.

// query So what's the measured recovery for this one? O=C(Nc1cncc2ccccc12)C1CN(S(=O)(=O)CC2CNC2)Cc2ccc(Cl)cc21 (stereo unspecified)
// result 93

* * *

Recorded measurements of logD, one per entry
Give your answer as a number; write no unit.

// query Sample O=C(Nc1cncc2c1CCCC2)C1CCNc2cc(Cl)c(Cl)cc21 (stereo not given) — what was its logD?
// result 3.9

// query Name the recorded logD for COCCS(=O)(=O)N1Cc2ccc(Cl)cc2C(C(=O)Nc2cncc3ccccc23)C1 (stereo not given) .
// result 2.3

// query Query (molecule): O=C(Nc1cncc2ccccc12)C1CN(S(=O)(=O)CC2CNC2)Cc2ccc(Cl)cc21 (stereo not given) ; field requested: logD
// result 0.2

// query # input molecule: CNC(=O)c1cc2c(NC(=O)C3CCOc4ccc(Cl)cc43)cncc2s1 (stereo not given) ; wanted: its logD
// result 3

// query May I ask what logD has been recorded for O=C(Nc1cncc2ccccc12)[C@@H]1CCNc2cc(Cl)c(Cl)cc21 (stereo in doubt) ?
// result 3.8

* * *

Here's what we have: pIC50 numbers for SARS-CoV-2 Main Protease (SARS-CoV-2) (UniProt P0DTD1).
Please treat pIC50 as minus the base-10 logarithm of the molar concentration.

Cc1ccncc1NC(=O)Cc1cc(Cl)cc(/C=C(/c2ccccc2)C(F)(F)F)c1 = 4.64
O=C(Cc1cc(Cl)cc(Nc2ccc(-n3cccn3)cc2)c1)Nc1cncc2ccccc12 = 5.67
O=C(Cc1cc(Cl)cc(NCc2cccc(F)c2Cl)c1)Nc1cncc2ccccc12 = 5.65
C[C@@H]1C[C@@H](C(=O)Nc2cncc3ccccc23)c2cc(Cl)ccc2O1 (stereo in doubt) = 6.64

// query Any idea what pIC50 came out for NC(=O)c1cc2c(NC(=O)C3CCOc4ccc(Cl)cc43)cncc2s1 (stereo not drawn) on SARS-CoV-2 Main Protease (SARS-CoV-2) (UniProt P0DTD1)?
// result 6.12

// query Find the measured pIC50: item O=C(Nc1cncc2ccccc12)C1CCOc2c(O)cc(Cl)cc21 (stereo not drawn) , target or system SARS-CoV-2 Main Protease (SARS-CoV-2) (UniProt P0DTD1).
// result 6.24

// query For the record Cn1c(=O)[nH]c2cncc(NC(=O)C3CCOc4ccc(Cl)cc43)c21 (stereo not drawn) , what value of pIC50 is listed for SARS-CoV-2 Main Protease (SARS-CoV-2) (UniProt P0DTD1)?
// result 4.68

// query GET /values?readout=pIC50&system=SARS-CoV-2 Main Protease (SARS-CoV-2) (UniProt P0DTD1)&item= N#Cc1ccc(N(C(=O)c2ccco2)C(C(=O)NCCc2cccc(F)c2)c2cccnc2)cc1 (stereo not drawn)
// result 4.98

// query I'm curious: which pIC50 was measured for CC(C)(C)c1ccc(N(C(=O)c2c[nH]c(=O)cn2)C(C(=O)NCCc2cccc(F)c2)c2cccnc2)cc1 (stereo not drawn) tested on SARS-CoV-2 Main Protease (SARS-CoV-2) (UniProt P0DTD1)?
// result 4.11

// query Missing value: pIC50, SARS-CoV-2 Main Protease (SARS-CoV-2) (UniProt P0DTD1), entry CC(NC(=O)C1CCC(=O)NC1)(C(=O)Nc1cncc2ccccc12)c1ccc(Cl)c(Cl)c1 (stereo not drawn) . Fill in?
// result 5.39

// query Write down the reported pIC50 of Nc1nc2[nH]cnc2c(=O)n1-c1cc(Cl)cc(CC(=O)Nc2cncc3ccccc23)c1 , test system: SARS-CoV-2 Main Protease (SARS-CoV-2) (UniProt P0DTD1).
// result 5.73

// query Notebook: pull reported pIC50 for SARS-CoV-2 Main Protease (SARS-CoV-2) (UniProt P0DTD1), entry O=C(Cc1cncc2ccccc12)Nc1cc(Cl)cc(OC2CCC(=O)N2)c1 (stereo not drawn)
// result 4.42

// query Recorded pIC50 for CNS(=O)(=O)N1CCc2ccc(Cl)cc2C1C(=O)Nc1cncc2ccccc12 (stereo not drawn) with SARS-CoV-2 Main Protease (SARS-CoV-2) (UniProt P0DTD1), please?
// result 5.81

// query Give recorded pIC50 with SARS-CoV-2 Main Protease (SARS-CoV-2) (UniProt P0DTD1) for the following molecule: CC(C)(C)c1ccc(N(C(=O)c2ccco2)C(C(=O)NCCN2CCOCC2)c2cccnc2)cc1 (stereo not drawn)
// result 5.66

// query SARS-CoV-2 Main Protease (SARS-CoV-2) (UniProt P0DTD1) / pIC50 / N#CCNC(=O)CN1Cc2ccc(Cl)cc2C2(CCN(c3cncc4ccccc34)C2=O)C1 (stereo not drawn) : value?
// result 6.58

// query Query the reported pIC50 for SARS-CoV-2 Main Protease (SARS-CoV-2) (UniProt P0DTD1); item: CNC(=O)C1(N2CC3(CCN(c4cncc5cc(S(C)(=O)=O)ccc45)C3=O)c3cc(Cl)ccc3C2=O)CC1 (stereo not drawn)
// result 6.58

// query Request: pIC50, test system SARS-CoV-2 Main Protease (SARS-CoV-2) (UniProt P0DTD1), entry O=C1NCC(C(=O)Nc2cncc3ccccc23)c2cc(F)cc(F)c21 (stereo not drawn)
// result 5.76

// query State its pIC50 on SARS-CoV-2 Main Protease (SARS-CoV-2) (UniProt P0DTD1): N#Cc1ccc(Nc2cc(Cl)cc(CC(=O)Nc3cncc4ccccc34)c2)cc1Br
// result 5.67

// query Please tell me: pIC50 of CC(C)(C)c1ccc(N(C(=O)c2cscn2)C(C(=O)NCCc2cccc(F)c2)c2cccnc2)cc1 (stereo not drawn) , system SARS-CoV-2 Main Protease (SARS-CoV-2) (UniProt P0DTD1)?
// result 6.05

// query State its pIC50 on SARS-CoV-2 Main Protease (SARS-CoV-2) (UniProt P0DTD1): O=C(Cc1cc(Cl)cc(Nc2cc(C(F)(F)F)ccc2N2CCCC2)c1)Nc1cncc2ccccc12
// result 5.45

// query Observed pIC50 on SARS-CoV-2 Main Protease (SARS-CoV-2) (UniProt P0DTD1) for CCc1cc(F)ccc1-c1cc(Cl)cc(CC(=O)Nc2cnccc2C)c1 , please.
// result 4.50

// query # value lookup — system SARS-CoV-2 Main Protease (SARS-CoV-2) (UniProt P0DTD1), readout pIC50, item O=C(Nc1cncc2ccccc12)C1CN(S(=O)(=O)N2CCOCC2)Cc2ccc(Cl)cc21 (stereo not drawn)
// result 6.86

// query Given the entry COc1ccc(CC(=O)Nc2cncc3ccccc23)cc1 , what pIC50 was observed with SARS-CoV-2 Main Protease (SARS-CoV-2) (UniProt P0DTD1)?
// result 4.14

// query Please tell me: pIC50 of CC(C)(C)c1ccc(N(C(=O)c2cocn2)C(C(=O)NCC2CCOC2)c2cccnc2)cc1 (stereo not drawn) , system SARS-CoV-2 Main Protease (SARS-CoV-2) (UniProt P0DTD1)?
// result 5.27

// query Which measured pIC50 belongs to CC(C)(C)c1cc(Nc2cc(Cl)cc(CC(=O)Nc3cncc4ccccc34)c2)n(-c2ccccc2)n1 , tested on SARS-CoV-2 Main Protease (SARS-CoV-2) (UniProt P0DTD1)?
// result 5.69
